B1: library; numbered along this chain (parent)
chain: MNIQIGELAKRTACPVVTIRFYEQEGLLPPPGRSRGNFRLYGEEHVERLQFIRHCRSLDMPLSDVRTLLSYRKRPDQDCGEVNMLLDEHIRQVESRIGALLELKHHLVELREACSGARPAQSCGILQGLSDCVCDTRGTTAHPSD

Variants of: B1
assay_overview: sfGFP reporter fluorescence (15 h) (µM FITC); higher = stronger transcriptional activation
test_settings: library round: Round 0; ligand: 1 µM Pb
measured_attribute: sfGFP reporter fluorescence

Consider the following illustrative entries.
INSERT INTO measurements (construct_sequence, observed) VALUES
  ('MNIQIGELAKRTACPVVTIRFYEQEGLLPPPGRSRGNFRLYGEEHVERLQFIRHCRSLDMPLSDVRTLLSYRKRPDQDCGEVNMLLDEHIRQVESRIGALLELKHHLVEFREACSGARPAQSCGILQGLSDCVCDTRGTTAHPSD [L110F]', 0.0599),
  ('MNIQIGELAKRTACPVVTIRFYEQEGLLPPPGPSRGNFRLYGEEHVERLQFIRHCRSLDMPLSDVRTLLSYRKRPDQDCGEVNMLLDEHIRQVESRIGALLELKHHLVELREACSGARPAQSCGILQGLSDCVCDTRGTTAHPSD [R33P]', 0.0596),
  ('MNIQIGELAKRTACPVVTIRFYEQEGLLPPPGRSRGNFRLYGEEHVERLQFIRHCRSLDMPLSDVRTLLSYRKRPDQDCGEVNMLLDEHIRQVESRIGALLELKHHLVELREACSGARPAQSCGILQGLSDCVSDTRGTTAHPSD [C134S]', 0.0814),
  ('MNIQIGELAKRTACPVVTIRFYEQEGLLPSPGRSRGNFRLYGEEHVERLQFIRHCRSLDMPLSDVRTLLSYRKRPDQDCGEVNMLLDEHIRQVESRIGALLELKHHLVELREACSGARPAQSCGILQGLSDCVCDTRGTTAHPSD [P30S]', 0.0801),
  ('MNIQIGELAKRTACPVVTIRFYEQEGLTPPPGRSRGNFRLYGEEHVERLQFIRHCRSLDMPLSDVRTLLSYRKRPDQDCGEVNMLLDEHIRQVESRIGALLELKHHLVELREACSGARPAQSCGILQGLSDCVCDTRGTTAHPSD [L28T]', 0.0691);

For each of the variants below, state sfGFP reporter fluorescence.
1. MNIQIGELAKRTACPVVTIRFYEQEGLLPPPGRSRGNFRLYGEEHGERLQFIRHCRSLDMPLSDVRTLLSYRKRPDQDCGEVNMLLDEHIRQVESRIGALLELKHHLVELREACSGARPAQSCGILQGLSDCVCDTRGTTAHPSD [V46G]
2. MNIQIGELAKRTACPVVTIRFYEQEGLLPPPGRSRGNFRLYGEEHVERLQFIRHCRSLDMPLSDVRTLLSYRKRPDQDCGEVNMLLDEHIRQVESRIGALLELKHHLVELREACSGARPAQSCGILQGLSNCVCDTRGTTAHPSD [D131N]
3. MNIQIGELAKRTACPVVTIRFYEQEGLLPPPGRSRGNFRLYGEEHVERLQFIRHCRSLDMPLSDVRTLLSYRKRPDQDCGEVNMLLDEHIRQVTSRIGALLELKHHLVELREACSGARPAQSCGILQGLSDCVCDTRGTTAHPSD [E94T]
4. MNIQIGELAKRTACPEVTIRFYEQEGLLPPPGRSRGNFRLYGEEHVERLQFIRHCRSLDMPLSDVRTLLSYRKRPDQDCGEVNMLLDEHIRQVESRIGALLELKHHLVELREACSGARPAQSCGILQGLSDCVCDTRGTTAHPSD [V16E]
5. MNIQIGELAKRTACPVVTIRFYEQEGLLPPPGRSRGNFRLYGEEHDERLQFIRHCRSLDMPLSDVRTLLSYRKRPDQDCGEVNMLLDEHIRQVESRIGALLELKHHLVELREACSGARPAQSCGILQGLSDCVCDTRGTTAHPSD [V46D]

Completion:
[0.059, 0.103, 0.108, 0.0762, 0.0612]
